Target: HLA-A*2402 (Homo sapiens, UniProt P04439, D101N/D140Y/D185E/E176V/E190D/F33S/G103R/G107R/I119L/I121M/I306V/K335N/L105A/L180Q/L300P/N151K/N90K/Q86E/Q94H/R106L/R138H/R89G/T104I/T345S/V100E/W191G/Y123F)
Assay: purified HLA class I binding assay, A*2402
pIC50: −log10 of the molar value. No end group written: not given here.
metric: pIC50

>>> df
              monomer_sequence  number
0  PYNEWTLEL [Peptide 25.0128]    7.07

* * *

pIC50: recorded values
Target: HLA-DRB5*0101 (DR2w2β2) (Homo sapiens, UniProt P01903+Q30154)
Construct: expressed in transfected cells
Assay: biochemical
Format: binding
pIC50: −log10 of the molar value. No end group written: not given here.
metric: pIC50

In [3]: df
Out[3]:
                    monomer_sequence  number
0  QHLLQLTVWGIKQLQ [Peptide 27.0297]    6.16
1  QKQITKIQNFRVYYR [Peptide 27.0377]    7.10

* * *

Target: HLA-DRB1*0301 (DR3) (Homo sapiens, UniProt P01903+P01911, A100K/A102G/A103R/A169T/F55Y/I96L/K41T/L162R/M171V/P40S/Q125H/Q178H/Q39Y/R42S/S66N/T106N/T262R/W38E/Y61H)
Construct: endogenous in cells
Sequence (P01903 26-254 partner, other chains not shown): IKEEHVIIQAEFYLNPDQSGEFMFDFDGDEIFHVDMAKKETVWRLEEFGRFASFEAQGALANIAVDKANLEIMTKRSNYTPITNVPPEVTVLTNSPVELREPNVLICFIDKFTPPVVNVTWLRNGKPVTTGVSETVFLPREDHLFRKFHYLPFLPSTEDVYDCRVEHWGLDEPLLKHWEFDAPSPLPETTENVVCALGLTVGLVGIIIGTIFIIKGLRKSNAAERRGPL
Assay: purified HLA class II binding assay, DRB1*0301 (DR3), pH 4.5
metric: IC50 (µM)

compound	metric	result_operator	number
CC[C@H](C)[C@H](NC(=O)CNC(=O)[C@H](CCCCN)NC(=O)[C@H](Cc1c[nH]cn1)NC(=O)[C@H](C)NC(=O)[C@@H]1CCCN1C(=O)[C@@H](NC(=O)[C@H](Cc1c[nH]c2ccccc12)NC(=O)[C@H](C)NC(=O)[C@H](CC(C)C)NC(=O)[C@H](Cc1ccc(O)cc1)NC(=O)[C@@H](NC(=O)[C@H](CCCCN)NC(=O)[C@@H](N)CCC(=O)O)C(C)C)C(C)C)C(=O)NCC(=O)O [Peptide 27.0361]	IC50	=	3.23
CC[C@H](C)[C@H](NC(=O)CNC(=O)[C@H](CCCCN)NC(=O)[C@H](Cc1c[nH]cn1)NC(=O)[C@H](C)NC(=O)[C@@H]1CCCN1C(=O)[C@@H](NC(=O)[C@H](Cc1c[nH]c2ccccc12)NC(=O)[C@H](C)NC(=O)[C@H](CC(C)C)NC(=O)[C@H](Cc1ccc(O)cc1)NC(=O)[C@@H](NC(=O)[C@@H](N)CCCCN)C(C)C)C(C)C)C(=O)NCC(=O)NCC(=O)O [Peptide 1280.03]	IC50	>	20
CC[C@H](C)[C@H](NC(=O)[C@@H](NC(=O)CNC(=O)[C@H](CC(C)C)NC(=O)[C@H](C)NC(=O)[C@H](Cc1ccc(O)cc1)NC(=O)[C@H](CCC(N)=O)NC(=O)[C@H](CO)NC(=O)[C@H](CC(=O)O)NC(=O)[C@@H](NC(=O)[C@@H](NC(=O)[C@@H](NC(=O)[C@H](CC(N)=O)NC(=O)[C@@H](NC(=O)[C@@H](N)CCC(=O)O)C(C)C)[C@@H](C)CC)C(C)C)[C@@H](C)O)[C@@H](C)CC)C(=O)O [Peptide 35.0127]	IC50	=	0.732
CC[C@H](C)[C@H](NC(=O)[C@H](C)NC(=O)[C@@H]1CCCN1C(=O)[C@@H](N)CO)C(=O)N[C@@H](Cc1ccccc1)C(=O)N[C@@H](CCC(N)=O)C(=O)N[C@@H](CO)C(=O)N[C@@H](CO)C(=O)N[C@@H](CCSC)C(=O)N[C@H](C(=O)N[C@@H](CCCCN)C(=O)N[C@H](C(=O)N[C@@H](CC(C)C)C(=O)N[C@@H](CCC(=O)O)C(=O)N1CCC[C@H]1C(=O)O)[C@@H](C)CC)[C@@H](C)O [Peptide 27.0344]	IC50	>	20

* * *

Target: HLA-DRB1*0701 (DR7) (Homo sapiens, UniProt P01903+P01911, A100R/A102G/A103Q/D57E/D86V/E43K/F76Y/K127E/L162R/M171V/P40G/Q125H/Q99D/R33Q/R42Y/R54Q/S133A/S66F/T210M/V115G/Y107V/Y59L/Y89S)
Construct: endogenous in cells; host or cells: Pitout
Assay: biochemical
Assay type: binding
Note to self: use True only for DR7 binding readings below 0.02; a reading exactly at 0.02 still gets False.

In [3]: df
Out[3]:
   monomer_sequence  group_label
0   VIFMFSALSEGATPQ         True
1   VTVYYGVPVWKEATI         True
2   ASGYIEAEVIPAFTG        False
3  NNLLRAIEAQQIILLQ         True
4   SPEVIFMFSALSEGA         True
5   QQHLLQLTVWGTKQL        False

* * *

Target: HLA-DRB1*0405 (DR4w15) (Homo sapiens, UniProt P01903+P01911, A100R/A169T/D86S/F76Y/I96L/K127E/L162R/M171V/N62H/P40V/Q125Y/R42H/S133A/S149N/S66Y/V115G/V209L/W38E)
Test: purified HLA class II binding assay, DRB1*0405 (DR4w15)
No end group written: not given here.
IC50: recorded values
metric: IC50 (µM)

                    monomer_sequence  number
0  HSNWRAMASDFNLPP [Peptide 27.0364]   0.015
1  QKQITKIQNFRVYYR [Peptide 27.0377]   0.049

* * *

pIC50: recorded values
Target: HLA-B51 (B*5101) (Homo sapiens, UniProt P01889, A329T/A93T/A95T/C349S/D138N/D201E/D98Y/E187L/E204Q/E69T/G107R/I218V/K202T/L105A/L119W/N104I/Q94N/R106L/R155S/R180L/S101N/S121T/S35A/S48A/V306I/V36M/Y195H/Y91F)
Experiment: purified HLA class I binding assay, B51 (B*5101)
pIC50: −log10 of the molar value. No end group written: not given here.
metric: pIC50

In [3]: df
Out[3]:
        monomer_sequence  metric  number
0  IPYNPQSQGVV [1296.03]   pIC50    6.92
1     VPLQLPPL [29.0028]   pIC50    9.10

* * *

Target: HLA-DRB1*0901 (DR9) (Homo sapiens, UniProt P01903+P01911, A100R/A103E/D57H/D86V/F55Y/F60I/F76Y/I96F/K127E/L162R/M171V/P40D/Q125H/Q99R/R33Q/R42F/S133A/S66N/T210M/V115G/W38K/Y107V/Y59G/Y89S)
Construct: endogenous in cells
Assay: biochemical
pIC50: −log10 of the molar value.

molecule	pIC50
CC(C)C[C@H](NC(=O)[C@H](CCCCN)NC(=O)[C@@H](NC(=O)[C@H](CC(C)C)NC(=O)[C@@H]1CCCN1C(=O)[C@@H]1CCCN1C(=O)[C@@H](NC(=O)[C@H](CC(N)=O)NC(=O)[C@@H](NC(=O)[C@H](Cc1ccccc1)NC(=O)[C@H](CCC(=O)O)NC(=O)[C@@H](N)Cc1c[nH]c2ccccc12)C(C)C)[C@@H](C)O)C(C)C)C(=O)N[C@@H](Cc1c[nH]c2ccccc12)C(=O)N[C@@H](Cc1ccc(O)cc1)C(=O)N[C@@H](CCC(N)=O)C(=O)O [Peptide 27.0354]	7.41
CC[C@H](C)[C@H](NC(=O)[C@H](C)NC(=O)[C@@H]1CCCN1C(=O)[C@@H](N)CO)C(=O)N[C@@H](Cc1ccccc1)C(=O)N[C@@H](CCC(N)=O)C(=O)N[C@@H](CO)C(=O)N[C@@H](CO)C(=O)N[C@@H](CCSC)C(=O)N[C@H](C(=O)N[C@@H](CCCCN)C(=O)N[C@H](C(=O)N[C@@H](CC(C)C)C(=O)N[C@@H](CCC(=O)O)C(=O)N1CCC[C@H]1C(=O)O)[C@@H](C)CC)[C@@H](C)O [Peptide 27.0344]	7.48
CC[C@H](C)[C@H](NC(=O)CNC(=O)[C@H](CCCCN)NC(=O)[C@H](Cc1c[nH]cn1)NC(=O)[C@H](C)NC(=O)[C@@H]1CCCN1C(=O)[C@@H](NC(=O)[C@H](Cc1c[nH]c2ccccc12)NC(=O)[C@H](C)NC(=O)[C@H](CC(C)C)NC(=O)[C@H](Cc1ccc(O)cc1)NC(=O)[C@@H](NC(=O)[C@@H](N)CCCCN)C(C)C)C(C)C)C(=O)NCC(=O)NCC(=O)O [Peptide 1280.03]	6.60
CC[C@H](C)[C@H](NC(=O)CNC(=O)[C@H](CCCCN)NC(=O)[C@H](Cc1c[nH]cn1)NC(=O)[C@H](C)NC(=O)[C@@H]1CCCN1C(=O)[C@@H](NC(=O)[C@H](Cc1c[nH]c2ccccc12)NC(=O)[C@H](C)NC(=O)[C@H](CC(C)C)NC(=O)[C@H](Cc1ccc(O)cc1)NC(=O)[C@@H](NC(=O)[C@H](CCCCN)NC(=O)[C@@H](N)CCC(=O)O)C(C)C)C(C)C)C(=O)NCC(=O)O [Peptide 27.0361]	6.84
